Tested on: Puccinia recondita
experimental details: Fungicidal activity against wheat leaf rust (WLR) disease, control value
Type: in vivo
condition summary: 50 ppm, wheat leaf rust; read-out: WLR control value (C.V.)
measurement kind: pest or weed control at 50 ppm (%)
Please respond with the number in % and leave the unit unwritten.

cpd_smiles=CO/N=C(/C(=O)OC)c1ccccc1COc1cccc(C=C(Cl)Cl)c1 target_under_test="Puccinia recondita" endpoint_value=100
cpd_smiles=CO/N=C(/C(=O)OC)c1ccccc1COc1ccc(C=C(Cl)Cl)cc1Br target_under_test="Puccinia recondita" endpoint_value=100
cpd_smiles=CNC(=O)/C(=N/OC)c1ccccc1COc1ccc(C)cc1C=C(Cl)Cl target_under_test="Puccinia recondita" endpoint_value=100

Given the entry CO/N=C(/C(=O)OC)c1ccccc1COc1c(C)cccc1C=C(Cl)Cl , report its measured pest or weed control at 50 ppm.
100

Given the entry CNC(=O)/C(=N/OC)c1ccccc1COc1cc(C=C(Cl)Cl)ccc1OC , report its measured pest or weed control at 50 ppm.
100

Given the entry CNC(=O)/C(=N/OC)c1ccccc1COc1ccc(C=C(Br)Br)cc1 , report its measured pest or weed control at 50 ppm.
98

Given the entry CNC(=O)/C(=N/OC)c1ccccc1COc1cccc(C=C(Cl)Br)c1 , report its measured pest or weed control at 50 ppm.
100

Given the entry CO/N=C(/C(=O)OC)c1ccccc1COc1cccc(C=C(F)Cl)c1 , report its measured pest or weed control at 50 ppm.
90

Given the entry CO/N=C(/C(=O)OC)c1ccccc1COc1ccc(C=C(Cl)Br)cc1 , report its measured pest or weed control at 50 ppm.
100

Given the entry CO/N=C(/C(=O)OC)c1ccccc1COc1ccc(C=C(Cl)Cl)cc1C , report its measured pest or weed control at 50 ppm.
100

Given the entry CO/N=C(/C(=O)OC)c1ccccc1COc1cccc(C=C(Cl)Br)c1 , report its measured pest or weed control at 50 ppm.
100

Given the entry CNC(=O)/C(=N/OC)c1ccccc1COc1cccc(C=C(Cl)Cl)c1 , report its measured pest or weed control at 50 ppm.
98

Given the entry CNC(=O)/C(=N/OC)c1ccccc1COc1c(C)cccc1C=C(Cl)Cl , report its measured pest or weed control at 50 ppm.
100

Given the entry CO/N=C(/C(=O)OC)c1ccccc1COc1ccc(C=C(Cl)Cl)cc1Cl , report its measured pest or weed control at 50 ppm.
100

Given the entry CO/N=C(/C(=O)OC)c1ccccc1COc1ccc(C)cc1C=C(Cl)Cl , report its measured pest or weed control at 50 ppm.
100

Given the entry CO/N=C(/C(=O)OC)c1ccccc1COc1ccc(C=C(F)F)cc1 , report its measured pest or weed control at 50 ppm.
100

Given the entry CO/N=C(/C(=O)OC)c1ccccc1COc1ccc(C=C(F)Cl)cc1 , report its measured pest or weed control at 50 ppm.
40

Given the entry CNC(=O)/C(=N/OC)c1ccccc1COc1ccc(C=C(Cl)Br)cc1 , report its measured pest or weed control at 50 ppm.
100

Given the entry CO/N=C(/C(=O)OC)c1ccccc1COc1cc(C=C(Cl)Cl)ccc1OC , report its measured pest or weed control at 50 ppm.
100

Given the entry CNC(=O)/C(=N/OC)c1ccccc1COc1ccc(C=C(Cl)Cl)cc1C , report its measured pest or weed control at 50 ppm.
100

Given the entry CNC(=O)/C(=N/OC)c1ccccc1COc1ccc(C=C(Cl)Cl)cc1Cl , report its measured pest or weed control at 50 ppm.
100

Given the entry CO/N=C(/C(=O)OC)c1ccccc1COc1c(OC)ccc(C=C(Cl)Cl)c1Br , report its measured pest or weed control at 50 ppm.
100

Given the entry CO/N=C(/C(=O)OC)c1ccccc1COc1cccc(C=C(Cl)Cl)c1Cl , report its measured pest or weed control at 50 ppm.
100

Given the entry CO/N=C(/C(=O)OC)c1ccccc1COc1ccc(C=C(Br)Br)cc1 , report its measured pest or weed control at 50 ppm.
100

Given the entry CNC(=O)/C(=N/OC)c1ccccc1COc1ccc(C=C(Cl)Cl)cc1 , report its measured pest or weed control at 50 ppm.
100

Given the entry CO/N=C(/C(=O)OC)c1ccccc1COc1ccc(C=C(Cl)Cl)cc1 , report its measured pest or weed control at 50 ppm.
100
